These data points were gathered from patent CN115073593A.

assay_target: 生物素化的SARS-CoV-2 RBD (SARS-CoV-2, UniProt P0DTC2 319-541)
experimental_protocol: ELISA screen, Fab culture supernatant on streptavidin-captured biotinylated RBD
readout_label: binding result

1. CB6-31 (轻链突变库克隆) (Fab, V domains shown, also called CB6-31-VL; CB6-31-LC) VH: EVQLVESGGGLVQPGGSLRLSCAASGFTVSSNYMSWVRQAPGKGLEWVSVIYSGGSTFYADSVKGRFTISRDNSMNTLFLQMNSLRAEDTAVYYCARVLPMYGDYLDYWGQGTLVTVSS VL: DIVMTQSPSSLSASVGDRVTITCRASQQIRQYLNWYQQKPGKAPKLLIYAASSLQSGVPSRFSGSGSGTDFTLTISSLQPEDFATYYCQQSSSPTPEYTFGQGTKLEIK    binds
2. CB6-18 (轻链突变库克隆) (Fab, V domains shown, also called CB6-18-VL; CB6-18-LC) VH: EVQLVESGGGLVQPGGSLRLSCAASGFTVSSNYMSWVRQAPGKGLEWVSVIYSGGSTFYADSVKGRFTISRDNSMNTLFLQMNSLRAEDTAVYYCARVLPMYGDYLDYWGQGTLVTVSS VL: DIVMTQSPSSLSASVGDRVTITCRASQDIHVYLNWYQQKPGKAPKLLIYAASSLQSGVPSRFSGSGSGTDFTLTISSLQPEDFATYYCQQSGSPVPEYTFGQGTKLEIK    binds
3. CB6-20 (轻链突变库克隆) (Fab, V domains shown, also called CB6-20-VL; CB6-20-LC) VH: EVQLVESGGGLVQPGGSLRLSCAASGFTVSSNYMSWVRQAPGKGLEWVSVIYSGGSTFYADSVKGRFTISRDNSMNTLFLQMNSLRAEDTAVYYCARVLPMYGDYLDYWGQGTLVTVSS VL: DIVMTQSPSSLSASVGDRVTITCRASQAILPYLNWYQQKPGKAPKLLIYAASSLQSGVPSRFSGSGSGTDFTLTISSLQPEDFATYYCQQSYSIIPEYTFGQGTKLEIK    binds
